The measured values listed here are drawn from ChEMBL document CHEMBL1150311.

For each entry below, report its Activity value.
Biological target: Nuclear receptor subfamily 1 group I member 2 (Homo sapiens, UniProt O75469)
Sequence (O75469 whole entry): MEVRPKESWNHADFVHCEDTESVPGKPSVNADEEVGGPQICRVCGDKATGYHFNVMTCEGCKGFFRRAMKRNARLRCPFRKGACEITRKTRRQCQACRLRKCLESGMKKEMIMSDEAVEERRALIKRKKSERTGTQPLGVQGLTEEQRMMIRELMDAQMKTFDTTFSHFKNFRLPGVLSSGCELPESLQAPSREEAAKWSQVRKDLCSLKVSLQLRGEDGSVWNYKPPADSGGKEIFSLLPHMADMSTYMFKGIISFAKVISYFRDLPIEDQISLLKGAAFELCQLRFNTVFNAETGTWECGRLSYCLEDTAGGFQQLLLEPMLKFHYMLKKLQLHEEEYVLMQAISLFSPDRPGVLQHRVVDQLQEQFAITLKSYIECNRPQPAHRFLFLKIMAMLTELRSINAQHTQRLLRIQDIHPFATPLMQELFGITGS
Experiment: Agonist activity at human PXR at 10 uM
Format: functional
Give the number first and the unit second.

For each of the items listed, what is its Activity?
1. Cn1c(-c2ccc(-n3ccnc3C(F)(F)F)cc2Cl)nnc1C1(c2ccc(Cl)cc2)CCC1
2. Cn1c(-c2ccc(-n3ccnc3)cc2Cl)nnc1C1(c2ccc(Cl)cc2)CCC1
3. Cc1cn(-c2ccc(-c3nnc(C4(c5ccc(Cl)cc5)CCC4)n3C)c(Cl)c2)c(C2CC2)n1
4. CCS(=O)(=O)c1ccccc1-c1ccc(-c2nnc(C3(c4ccc(Cl)cc4)CCC3)n2C)c(Cl)c1
5. Cc1nccn1-c1ccc(-c2nnc(C3(c4ccc(Cl)cc4)CCC3)n2C)c(Cl)c1

1: 24%; 2: 21%; 3: 13%; 4: 74%; 5: 22%
